Tested on: Mouse cortical cell cultures
experiment notes: Fe^2+-induced free radical neurotoxicity in cortical cell cultures (LDH release)
Format: cell-based
conditions: comparison in words
measured parameter: protection against free radical neurotoxicity relative to NBAS

O=C(O)c1cc(NCCCc2ccc([N+](=O)[O-])cc2)ccc1O [NPPAA]    more effective than NBAS
O=C(O)c1cc(NS(=O)(=O)c2ccc([N+](=O)[O-])cc2)ccc1O [NBSAA]    weaker than NBAS
O=C(O)c1cc(NCCc2ccc([N+](=O)[O-])cc2)ccc1O [NPAA]    more effective than NBAS
O=C(Nc1ccc(O)c(C(=O)O)c1)c1ccc([N+](=O)[O-])cc1 [NBAA, 5-(4-nitrobenzoyl)aminosalicylic acid]    weaker than NBAS
